Origin of measurements: ChEMBL document CHEMBL5291721

Each entry below carries its measured AC50, system: 5-hydroxytryptamine receptor 2C (Homo sapiens). Also: assay procedure not described here.
Sequence (P28335 whole entry): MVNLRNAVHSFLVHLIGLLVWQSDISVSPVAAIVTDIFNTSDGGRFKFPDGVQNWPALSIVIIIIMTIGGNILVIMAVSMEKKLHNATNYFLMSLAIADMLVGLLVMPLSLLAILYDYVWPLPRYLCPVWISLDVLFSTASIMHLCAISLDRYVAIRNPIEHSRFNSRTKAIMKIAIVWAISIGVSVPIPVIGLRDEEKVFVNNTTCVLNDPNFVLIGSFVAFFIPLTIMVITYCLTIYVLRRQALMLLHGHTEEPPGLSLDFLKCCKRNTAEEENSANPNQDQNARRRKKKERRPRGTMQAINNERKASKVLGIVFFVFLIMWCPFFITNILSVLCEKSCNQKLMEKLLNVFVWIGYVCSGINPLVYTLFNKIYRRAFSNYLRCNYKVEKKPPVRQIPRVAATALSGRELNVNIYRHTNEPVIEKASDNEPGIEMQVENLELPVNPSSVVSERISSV

Solved entries (count: 3):
[Q] Tell me reported AC50 for COc1ccc(-c2noc(CC(=O)O)c2-c2ccc(OC)cc2)cc1 , tested with 5-hydroxytryptamine receptor 2C (Homo sapiens).
[A] > 30 µM

[Q] Tell me reported AC50 for CC(=O)N[C@@H](CS)C(=O)O , tested with 5-hydroxytryptamine receptor 2C (Homo sapiens).
[A] > 30 µM

[Q] Tell me reported AC50 for Clc1ccc(C(Cn2ccnc2)OCc2ccsc2Cl)c(Cl)c1 (stereo not drawn) , tested with 5-hydroxytryptamine receptor 2C (Homo sapiens).
[A] > 30 µM

Continuing:
[Q] Tell me reported AC50 for C[N@+]1(CCF)[C@@H]2CC[C@H]1C[C@@H](OC(=O)C(O)(c1ccccc1)c1ccccc1)C2 , tested with 5-hydroxytryptamine receptor 2C (Homo sapiens).
[A] > 30 µM

[Q] Tell me reported AC50 for OCc1cc(C(O)CNCCCCCCOCCCCc2ccccc2)ccc1O (stereo not drawn) , tested with 5-hydroxytryptamine receptor 2C (Homo sapiens).
[A] > 30 µM

[Q] Tell me reported AC50 for CNC1=Nc2ccc(Cl)cc2C(c2ccccc2)=[N+]([O-])C1 [CHLORDIAZEPOXIDE] , tested with 5-hydroxytryptamine receptor 2C (Homo sapiens).
[A] > 30 µM

[Q] Tell me reported AC50 for CCN(CC)CCNC(=O)c1c(C)[nH]c(/C=C2\C(=O)Nc3ccc(F)cc32)c1C , tested with 5-hydroxytryptamine receptor 2C (Homo sapiens).
[A] 2.25 µM

[Q] Tell me reported AC50 for CC(C(=O)O)c1ccc(-c2ccccc2)c(F)c1 (stereo not drawn) , tested with 5-hydroxytryptamine receptor 2C (Homo sapiens).
[A] 2.6 µM

[Q] Tell me reported AC50 for C[C@H](Cc1ccc(O)c(O)c1)[C@@H](C)Cc1ccc(O)c(O)c1 , tested with 5-hydroxytryptamine receptor 2C (Homo sapiens).
[A] > 30 µM

[Q] Tell me reported AC50 for CCCN[C@H]1CCc2nc(N)sc2C1 [PRAMIPEXOLE] , tested with 5-hydroxytryptamine receptor 2C (Homo sapiens).
[A] > 30 µM

[Q] Tell me reported AC50 for C[C@H](CCC(=O)O)[C@H]1CC[C@H]2[C@@H]3[C@@H](O)C[C@@H]4C[C@H](O)CC[C@]4(C)[C@H]3CC[C@]12C , tested with 5-hydroxytryptamine receptor 2C (Homo sapiens).
[A] > 30 µM

[Q] Tell me reported AC50 for CC(=O)[C@@]1(O)CC[C@H]2[C@@H]3C=C(Cl)C4=CC(=O)[C@@H]5C[C@@H]5[C@]4(C)[C@H]3CC[C@@]21C , tested with 5-hydroxytryptamine receptor 2C (Homo sapiens).
[A] > 30 µM

----------
Each entry below carries its measured AC50, system: Melanocortin receptor 4 (Homo sapiens, UniProt P32245). Also: assay procedure not described here.
Sequence (P32245 whole entry): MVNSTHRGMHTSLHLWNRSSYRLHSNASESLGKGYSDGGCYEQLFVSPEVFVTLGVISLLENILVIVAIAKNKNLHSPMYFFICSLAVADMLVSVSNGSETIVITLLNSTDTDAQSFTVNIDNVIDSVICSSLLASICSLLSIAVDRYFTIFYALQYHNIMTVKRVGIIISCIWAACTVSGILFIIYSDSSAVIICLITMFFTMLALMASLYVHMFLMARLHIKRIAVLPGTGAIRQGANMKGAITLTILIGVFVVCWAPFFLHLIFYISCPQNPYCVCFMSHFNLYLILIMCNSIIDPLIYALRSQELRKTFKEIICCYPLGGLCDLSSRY

Solved entries (count: 5):
[Q] # lookup: AC50 of O=C1CN=C(c2ccccn2)c2cc(Br)ccc2N1
[A] > 10 µM

[Q] # lookup: AC50 of C[C@H](Cc1ccc(O)c(O)c1)[C@@H](C)Cc1ccc(O)c(O)c1
[A] > 10 µM

[Q] # lookup: AC50 of CC12CC3CC(C)(C1)CC(N)(C3)C2 [MEMANTINE]
[A] > 30 µM

[Q] # lookup: AC50 of CCC[C@H](NC(=O)[C@@H]1[C@H]2CCC[C@H]2CN1C(=O)[C@@H](NC(=O)[C@@H](NC(=O)c1cnccn1)C1CCCCC1)C(C)(C)C)C(=O)C(=O)NC1CC1
[A] > 30 µM

[Q] # lookup: AC50 of CC(N)C(O)c1ccccc1 (stereo not given)
[A] > 30 µM

Continuing:
[Q] # lookup: AC50 of CC(C)COCC(CN(Cc1ccccc1)c1ccccc1)N1CCCC1 (stereo not given)
[A] 15.4 µM

[Q] # lookup: AC50 of O=C1C(CC[S+]([O-])c2ccccc2)C(=O)N(c2ccccc2)N1c1ccccc1 (stereo not given)
[A] > 10 µM

[Q] # lookup: AC50 of CCOC(=O)C1=C(C)NC(C)=C(C(=O)OC)C1c1cccc([N+](=O)[O-])c1 (stereo not given)
[A] > 30 µM

[Q] # lookup: AC50 of CCC(=O)O[C@H]1CC[C@H]2[C@@H]3CCC4=CC(=O)CC[C@]4(C)[C@H]3CC[C@]12C [TESTOSTERONE PROPIONATE]
[A] > 10 µM

[Q] # lookup: AC50 of CCOC(=O)c1cncn1[C@H](C)c1ccccc1 [ETOMIDATE]
[A] > 10 µM
